# study-target: Genome polyprotein (Dengue virus type 2 (strain 16681-PDK53)) (UniProt P29991)
# Sequence (P29991 whole entry, looked up): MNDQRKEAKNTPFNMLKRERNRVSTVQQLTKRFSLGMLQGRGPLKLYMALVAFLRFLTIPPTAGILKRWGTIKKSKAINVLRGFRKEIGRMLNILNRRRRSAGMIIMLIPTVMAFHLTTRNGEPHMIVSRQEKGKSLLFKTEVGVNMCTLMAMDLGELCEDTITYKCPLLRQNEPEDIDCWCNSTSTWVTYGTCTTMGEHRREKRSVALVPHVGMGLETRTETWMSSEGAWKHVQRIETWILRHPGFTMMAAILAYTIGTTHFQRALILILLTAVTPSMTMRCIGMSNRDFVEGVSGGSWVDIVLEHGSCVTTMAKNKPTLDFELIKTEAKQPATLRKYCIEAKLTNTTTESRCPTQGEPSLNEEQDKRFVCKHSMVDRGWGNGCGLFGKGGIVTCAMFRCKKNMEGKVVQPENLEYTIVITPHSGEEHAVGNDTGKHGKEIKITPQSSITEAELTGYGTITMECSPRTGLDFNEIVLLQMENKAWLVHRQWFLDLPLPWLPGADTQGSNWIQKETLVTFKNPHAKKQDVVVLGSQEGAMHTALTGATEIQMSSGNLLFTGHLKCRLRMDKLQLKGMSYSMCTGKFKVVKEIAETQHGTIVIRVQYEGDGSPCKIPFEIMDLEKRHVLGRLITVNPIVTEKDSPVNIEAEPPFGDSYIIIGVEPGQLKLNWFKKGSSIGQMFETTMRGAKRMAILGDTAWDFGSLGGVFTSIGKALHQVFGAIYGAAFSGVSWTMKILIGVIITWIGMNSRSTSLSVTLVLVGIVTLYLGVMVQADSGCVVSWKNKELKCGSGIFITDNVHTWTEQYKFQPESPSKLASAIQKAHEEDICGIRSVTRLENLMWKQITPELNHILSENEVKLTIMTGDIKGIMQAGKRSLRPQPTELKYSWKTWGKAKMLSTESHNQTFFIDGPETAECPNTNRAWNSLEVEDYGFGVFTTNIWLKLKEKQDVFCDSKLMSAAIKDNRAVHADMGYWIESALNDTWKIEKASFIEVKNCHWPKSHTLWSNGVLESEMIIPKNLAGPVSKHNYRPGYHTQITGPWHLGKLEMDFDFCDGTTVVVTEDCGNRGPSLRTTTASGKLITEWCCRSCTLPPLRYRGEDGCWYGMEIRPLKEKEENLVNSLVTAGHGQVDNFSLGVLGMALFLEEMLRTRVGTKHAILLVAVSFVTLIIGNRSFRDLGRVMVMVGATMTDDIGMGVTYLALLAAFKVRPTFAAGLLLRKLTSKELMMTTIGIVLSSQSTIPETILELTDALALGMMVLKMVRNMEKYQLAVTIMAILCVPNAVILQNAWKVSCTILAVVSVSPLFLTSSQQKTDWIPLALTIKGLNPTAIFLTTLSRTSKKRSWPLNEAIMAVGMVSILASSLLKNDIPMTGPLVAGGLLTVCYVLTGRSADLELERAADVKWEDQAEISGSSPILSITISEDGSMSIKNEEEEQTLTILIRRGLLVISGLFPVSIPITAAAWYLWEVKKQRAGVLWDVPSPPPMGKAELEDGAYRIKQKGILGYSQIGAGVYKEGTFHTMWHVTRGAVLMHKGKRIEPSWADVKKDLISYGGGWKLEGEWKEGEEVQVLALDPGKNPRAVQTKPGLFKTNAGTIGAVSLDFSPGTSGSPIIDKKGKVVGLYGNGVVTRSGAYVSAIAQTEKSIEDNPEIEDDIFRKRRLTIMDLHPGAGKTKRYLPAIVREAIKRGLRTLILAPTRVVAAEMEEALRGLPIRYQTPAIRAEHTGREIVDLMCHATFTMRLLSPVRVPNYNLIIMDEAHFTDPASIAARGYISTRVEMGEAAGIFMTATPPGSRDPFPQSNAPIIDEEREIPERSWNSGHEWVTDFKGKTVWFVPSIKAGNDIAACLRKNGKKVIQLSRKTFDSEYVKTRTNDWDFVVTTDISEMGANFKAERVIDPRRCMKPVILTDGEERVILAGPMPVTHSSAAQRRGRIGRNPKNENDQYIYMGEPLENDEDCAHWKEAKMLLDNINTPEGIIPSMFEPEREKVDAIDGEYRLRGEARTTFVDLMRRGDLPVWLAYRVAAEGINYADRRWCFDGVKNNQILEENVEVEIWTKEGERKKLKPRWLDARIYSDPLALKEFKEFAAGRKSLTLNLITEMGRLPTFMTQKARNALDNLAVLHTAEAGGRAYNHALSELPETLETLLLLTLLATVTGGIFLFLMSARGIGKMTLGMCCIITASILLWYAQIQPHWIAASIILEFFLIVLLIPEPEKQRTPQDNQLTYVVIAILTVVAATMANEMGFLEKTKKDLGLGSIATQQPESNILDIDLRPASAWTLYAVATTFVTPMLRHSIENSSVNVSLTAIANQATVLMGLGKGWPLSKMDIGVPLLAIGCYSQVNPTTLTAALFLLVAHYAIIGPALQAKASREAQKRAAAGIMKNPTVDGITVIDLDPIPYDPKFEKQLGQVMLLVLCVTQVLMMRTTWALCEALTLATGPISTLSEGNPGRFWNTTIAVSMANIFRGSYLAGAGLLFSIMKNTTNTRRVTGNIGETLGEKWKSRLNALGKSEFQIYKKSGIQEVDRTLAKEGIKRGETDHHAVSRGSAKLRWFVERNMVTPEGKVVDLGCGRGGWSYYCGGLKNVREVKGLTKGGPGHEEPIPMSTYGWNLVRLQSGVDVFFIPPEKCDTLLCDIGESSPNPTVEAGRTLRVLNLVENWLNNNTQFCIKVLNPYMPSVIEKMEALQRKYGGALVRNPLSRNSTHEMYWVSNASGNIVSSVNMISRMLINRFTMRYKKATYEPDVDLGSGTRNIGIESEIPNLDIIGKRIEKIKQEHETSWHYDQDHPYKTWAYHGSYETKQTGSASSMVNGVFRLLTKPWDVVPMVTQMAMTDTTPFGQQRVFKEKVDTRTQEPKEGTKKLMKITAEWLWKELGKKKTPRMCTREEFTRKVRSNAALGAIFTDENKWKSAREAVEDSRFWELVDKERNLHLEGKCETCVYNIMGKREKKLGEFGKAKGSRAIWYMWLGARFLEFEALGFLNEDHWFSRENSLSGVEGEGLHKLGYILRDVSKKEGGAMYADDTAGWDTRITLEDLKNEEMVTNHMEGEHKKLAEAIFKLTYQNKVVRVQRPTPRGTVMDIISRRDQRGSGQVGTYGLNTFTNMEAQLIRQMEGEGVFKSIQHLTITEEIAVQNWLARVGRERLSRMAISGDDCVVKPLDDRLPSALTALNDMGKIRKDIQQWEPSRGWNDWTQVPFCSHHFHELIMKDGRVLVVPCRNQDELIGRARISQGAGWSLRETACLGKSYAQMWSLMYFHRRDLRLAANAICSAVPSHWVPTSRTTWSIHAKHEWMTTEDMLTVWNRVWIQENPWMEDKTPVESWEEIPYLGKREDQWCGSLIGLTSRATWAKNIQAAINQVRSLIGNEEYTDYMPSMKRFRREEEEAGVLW
# experiment-notes: flavivirus cap methylation enzyme inhibition – biochemical, confirmation dose response, primary screen (AID 588689)
# details: Dengue-2 NS5 methyltransferase capping enzyme assay, at 25 µM, hits give high values
The whole screen tested about 340,000 compounds, of which about 1,000 (0.29%) were called active. These entries were drawn from the full list. Measured potencies and affinities stand elsewhere.
measured-attribute: inhibition (%)
Just the number please, in %, no unit attached.

Consider the reported inhibition for these compounds:
structure-smiles-string	study-target	inhibition, %
CC(/C=C1\SC(=S)N(NC(=O)c2cccc(O)c2)C1=O)=C\c1ccccc1	Genome polyprotein (Dengue virus type 2 (strain 16681-PDK53)) (UniProt P29991)	-2.56
CCOCCn1c(CN2CCN(C(c3ccccc3)c3ccccc3)CC2)nc2c1c(=O)n(C)c(=O)n2C	Genome polyprotein (Dengue virus type 2 (strain 16681-PDK53)) (UniProt P29991)	-5.88

Switching to the query record.
So for `O=C(c1ccc(N2CCOCC2)c([N+](=O)[O-])c1)N1CCN(c2ccccc2)CC1` , the logged inhibition turned out to be -9.43
